Hey, just so you know, these numbers are from the supplement of paper PMC9170038.

# Tested on: MS2 coat protein
# Procedure Text: apparent KD of MS2 coat protein; designed switch direction (-1 OFF switch, 1 ON switch): 1; higher = weaker reporter binding
# Condition Notes: input ligand: FMN 200 uM
Measurement Label: apparent KD of MS2 coat protein (nM)

Input Sequence	Readout Units	Reported Value
GUUACAUGAGGAUCACCCAUGUAUGUGUGGGAGUAAGUGUCUUAGGAUAUCUAGUAGUUAAUUUAAGAGAAGGAAGAUUGUUGU [JMF's solution 55] (Eterna round: R96, puzzle: Same State NG 3)	nM	145
ACAUGAGAGAUAGGAUAUGUUGUACCUACAUGUGACAUGAGGAUCACCCAUGUGGUAAGUAUGAGGCAGAAGGAUCAGAUAUGU [Equivalence 41 - Jieux - Same State NG 2] (Eterna round: R96, puzzle: Same State NG 2)	nM	29.2
GCGAGCGUACUUGCUACAUGAGGAUCACCCAUGUUUACUGGACAGGAUAUGGUACCGUUUCGGUACCAGAAGGGUUCAUCAUGU [JL SSNG3 3.69] (Eterna round: R96, puzzle: Same State NG 3)	nM	278
AUUCGUUUGAUAGGAUAUCACUUUACAUGAGGAUCACCCAUGUUCACCACGCUGGUUUCUUAUACUGAGAAGGAUCUUGAUGAC [JR_SSNG2_Sub010] (Eterna round: R96, puzzle: Same State NG 2)	nM	19.5
AGAUGUUAAUUAGGAUAUGGACACAUGAGGAUCACCCAUGUAACGUAGAUACGAUGUGGUCAAGUCUAGAAGGGAUAGCUAACA [SameState NG2 #76] (Eterna round: R96, puzzle: Same State NG 2)	nM	39.9
AUUAUUAAUGCAGGAUAUGAUUAACAUGAGGAUCACCCAUGUGGUGUUGUGAGUAAGGAGAGUGAUCAGAAGGGCAUUUUGUUU [JMF's solution 12] (Eterna round: R96, puzzle: Same State NG 2)	nM	1130
UGAGCCGGCACUGAGGAUAUUCAUAUUAAAACAUGAGGAUCACCCAUGUAGGCCAGAAGGCCUUGGGAGAAGGCAGGUCGGCUCA [Mat - Same State 2 - Mod of UCT - D62] (Eterna round: R96, puzzle: Same State 2)	nM	19.5
AUACAUAUCAGAGGAUAUCACGUCGAUUAGACGUGAGAAGGCUGAUCACACAUGAAUAUUAAUACAUGAGGAUCACCCAUGUAU [SSNG1/14-A2] (Eterna round: R96, puzzle: Same State NG 1)	nM	20.6
CUGAGCAAUCAAGGAUAUCACGUCGAUUAGACGUGAGAAGGUGAUCAUAACAUGAGGAUCACCCAUGUAUUACAUGAAGCUCAG [SSNG1/1-A2] (Eterna round: R96, puzzle: Same State NG 1)	nM	975
AAACACAGCAUAACGCCGUGACAUGAGGAUCACCCAUGUACACAGGAUAUCAUGGCAUAACGCCAUGAGAAGGGUGAUCAAGAC [Raorma] (Eterna round: R96, puzzle: Same State NG 3)	nM	732
UAAAUAAAGUAAGGAUAUACAUGAGGAUUUCUCGUAGAAGGUACAAGACAUGAGGAUCACCCAUGUAUCGCUCGAAAGAGCGUA [Mat - Same State NG 1 - JL mod - D22] (Eterna round: R96, puzzle: Same State NG 1)	nM	126
GUAGCAUACCGAGGAUAUUCAUAUAAUAAAUAAACAUGAGGAUCACCCAUGUGGCGAAAGCCUUGGGAGAAGGCGGAAUGCUAC [Xeonanis - 20 Mod55] (Eterna round: R96, puzzle: Same State NG 2)	nM	20.7
GGUAUCGACGCAGGAUAUGCUAUCCUUUGGGUAGCAGAAGGGUGAACAUGAGGAUCACCCAUGUGGGUGCCAGGGCGUGAGCCC [JL SSNG1 1.82] (Eterna round: R96, puzzle: Same State NG 1)	nM	694
GGAAUAUUUACAGGAUAUGAUUUGUAAAGUCGAUCAGAAGGGUGGAUGUCUUACACGGUUUGUUACAUGAGGAUCACCCAUGUC [SameState NG1 #13] (Eterna round: R96, puzzle: Same State NG 1)	nM	232
UGCUGUGUGGUAGGAUAUGUAGGAUAUGUACAUGAGGAUCACCCAUGUCAGUUAAUGACAGAAGGAUAGAAGGACCAGAGGGCU [pwkr ssNG2 2FMN 1F5s.3] (Eterna round: R96, puzzle: Same State NG 2)	nM	254
UAGUACAAGCUUUUUGCUUGUCUUAUUUAACAUGAGGAUCACCCAUGUAAGUUGAAAGUUAGAGAGUGCACCUUCAA [JR_SHM208A_Sub052] (Eterna round: R96, puzzle: Sensor for hsa-mir-208a)	nM	17.2
ACAUGAGAGUGAGGAUAUACUGUACCUACAUGUGACAUGAGGAUCACCCAUGUGGUAAGUAUGACGUAGAAGGCACAGAUAUGU [Equivalance 79 - Jieux - Same State NG 2] (Eterna round: R96, puzzle: Same State NG 2)	nM	33.1

###

# Tested on: K4 kissing-loop RNA reporter;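 also: bound reporter read as fluorescence of individual clusters on recovered sequencing chips by microscopy, with normalized cluster intensities fitted with a binding model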
# Procedure Text: apparent KD of K4 kissing-loop reporter; higher = weaker reporter binding
# Condition Notes: Eterna round: R107; input ligand: theophylline 20 uM
Would you mind labelling by apparent KD of K4 kissing-loop reporter? At or over 200 nM is y, under is n.

Input Sequence	Classification
UGUGAACAAAAGUAGAGUGGACCACUAUAGCGAGGACCGGUACGGCCGCCACUCGUACAUGAAUUCAGUGAUGUUGAAAAGAGCU [whbob_EX_Tryp_A_t13]	y
UGGAGUUGACGAAAAGUCAACUCCUGAGAAGGAGCGCACGAAAGUGCAGGUAGGUCGCUCUACCAGUGAUGUUGGUACUUAAUAA [#OpenEnded 6]	n
GAAUAAUAAGUAGCAGUGAUGUUGCUACUACGAGGACCGGUACGGCCGCCACUCGAAUACGAGUGGACACUGCUACUACCACUCG [(H1)-(H2)-(Trp1)-(Trp2)-(T)'-(H)'-(T)''_Design8]	n
ACCUACCAUUAGUGAUGUUAAUGGACGGAAGGAGCGCAGAUAUCUGCAGGUAGGUCGCCGAAGGCUAGACAUUGUCUAGCCAUUA [AK1.1 SS Arginine A]	n
UGUCAUUGGUCUGAUACCAGUCCCUUGGCAGCCUAAAGGAGUGAUGUUCCAAGGAUACCAGACCCUUGGCAGCAGACCGAUGACU [TheoBS 28 #DoubleAptamer #SwitchBubble]	y
GCGCCGGUCUGCUUUAGAGUGAUGUUCUCCCGAGGACCGGUACGGCCGCCACUCGGCCAACGCUAUUAUCUUUGAUCCGCGGUGC [theeternabot_exclusion_KL_Trp_A_41]	y
CGCCGAUUGUCGGAGUGAUGUUCCCGGGAUACCAGCACGUCGUCAUGCCCUUGGCAGCCCAACAGACCAUUUUAAAGGCUAGCUG [theeternabot_sameState_KL_Theo_A_35]	y
UGUCAUUGGUCUGAUACCAGUUAGCGCGAUAAGCGCAAAACUGGAGUGAUGUUCCCAAAUAACCCUUGGCAGCAGACCGAUGACU [MAT - Same State Theophlline B - Mod of Eli - D13]	n
UGGAGUUGACGAAAAGUCAACUCCUGAGAUACCAGUGACGAAAGUCACCCUUGGCAGCUCACUGCCAGUGAUGUUGGUUCAUAAG [#03 K4 Theophylline A Same State]	y
GGAGGGAUCUCGGCCGCCACUCAUAAGAAAUGGGCCUCAGAAAUAUAGUGAUGUUAUGUAAAGAAGAGGACCGGGAGAAAGAAGG [ExTryptoB.Da]	y
CCAUCGCUAUUCGAUACCAGUCAUUAAAUCUUUGGUUUAAUAAAGGAGUGAUGUUCCCAAGACCCUUGGCAGCGAAUAGUGAUGG [Theophylline B K4 9]	n

###

# System: MS2 coat protein
# Procedure Text: apparent KD of MS2 coat protein; designed switch direction (-1 OFF switch, 1 ON switch): -1; higher = weaker reporter binding
# Condition Notes: input ligand: FMN 200 uM
Measurement Label: apparent KD of MS2 coat protein (nM)

Input Sequence	Measurement Label	Reported Value
CCGACAUGAGGAUAUCCAUCUGGAUCAGACUAGAUCCUGAUGGAGAAGGUACAUGAGGAUCACCCAUGUUACGG [Eli 4x 4.46] (Eterna round: R97, puzzle: Exclusion 4)	apparent KD of MS2 coat protein	372
GUUCGUGAGAAGGAUAUGAUUCUGGAACAAGAGUUAGAAGGUUUCACAUGAGGAUCACCCAUGUCUAGAAAACC [Eternabot (Original) Solution 32] (Eterna round: R97, puzzle: Exclusion 6)	apparent KD of MS2 coat protein	12.2
CGUCUGUAAGGAUAUGGUUGCAUCAACAUGAGGAUCACCCAUGUUACAUGGGACUAGUGAUUAGAAGGUACGAACG [EX5 #57] (Eterna round: R97, puzzle: Exclusion 5)	apparent KD of MS2 coat protein	58.3
GGGCUCGGAGGAUAUACAAUCUCGGGCUGAAAGGCUCGGGUACAUGAGGAUCACCCAUGUAGAAGGUCGGGCUC [-30.2, -27.6 kcal A 24%, 4bis,4] (Eterna round: R97, puzzle: Exclusion 2)	apparent KD of MS2 coat protein	26
GAUACACGUUCAGGAUAUCGCGCCCAAUUACACCUCUUCCGACGGACAUGAGGAUCACCCAUGUGCGAGAAGGGAACCAAAACU [Orquonbedi] (Eterna round: R96, puzzle: Exclusion NG 2)	apparent KD of MS2 coat protein	13.6
